# IC50 listing for each entry below
- measurementTarget: UniProt P21452
- Sequence (P21452 1-398): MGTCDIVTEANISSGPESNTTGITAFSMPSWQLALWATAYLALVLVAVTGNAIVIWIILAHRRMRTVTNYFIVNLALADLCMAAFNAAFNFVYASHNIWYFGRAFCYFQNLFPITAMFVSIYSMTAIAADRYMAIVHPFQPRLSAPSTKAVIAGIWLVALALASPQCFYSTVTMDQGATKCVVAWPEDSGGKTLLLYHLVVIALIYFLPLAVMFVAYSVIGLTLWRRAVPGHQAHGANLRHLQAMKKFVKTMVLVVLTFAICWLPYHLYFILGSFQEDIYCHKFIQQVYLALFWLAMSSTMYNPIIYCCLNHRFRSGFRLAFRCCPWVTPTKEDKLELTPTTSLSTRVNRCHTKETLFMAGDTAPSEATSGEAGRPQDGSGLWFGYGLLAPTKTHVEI
- protocol: Signal transduction (ST), intracellular Ca++ (FLIPR), NK2
- Type: cell-based
- runParameters: read-out: pIC50 NK2 (converted)
readoutKind: IC50

* O=C(c1cc(C(F)(F)F)cc(C(F)(F)F)c1)N1CC[C@H](N2CCN(C3CCN(C(=O)C4(O)CC4)C3)CC2)C[C@H]1Cc1ccccc1 (some centres unmarked) [Compound 276] | 3160 nM
* CC(C)N/C(=N\C#N)N1CCC(N2CCN(C3CCN(C(=O)c4cc(C(F)(F)F)cc(C(F)(F)F)c4)C(Cc4ccccc4)C3)CC2)C1 (centres unmarked) [Compound 344] | 3980 nM
* O=C(C1CCOC1)N1CCC(N2CCN(C3CCN(C(=O)c4cc(C(F)(F)F)cc(C(F)(F)F)c4)C(Cc4ccc(F)c(F)c4)C3)CC2)C1 (single isomer, unassigned) [Compound 281] | 3980 nM
* O=C(c1cccs1)N1CC[C@@H](N2CCN([C@H]3CCN(C(=O)c4cc(C(F)(F)F)cc(C(F)(F)F)c4)[C@H](Cc4ccc(Cl)c(Cl)c4)C3)CC2)C1 [Compound 264] | 1580 nM
* Cn1cccc1C(=O)N1CCC(N2CCN(C3CCN(C(=O)c4cc(C(F)(F)F)cc(C(F)(F)F)c4)C(Cc4ccc(F)c(F)c4)C3)CC2)C1 (single isomer, unassigned) [Compound 366] | 2000 nM
* O=C(C(=O)N1CCC(N2CCN(C3CCN(C(=O)c4cc(C(F)(F)F)cc(C(F)(F)F)c4)C(Cc4ccccc4)C3)CC2)C1)c1ccco1 (centres unmarked) [Compound 64] | 2510 nM
* Cn1cnc(C(=O)N2CCC(N3CCN([C@H]4CCN(C(=O)c5cc(C(F)(F)F)cc(C(F)(F)F)c5)[C@H](Cc5ccccc5)C4)CC3)C2)c1 (some centres unmarked) [Compound 282] | 3980 nM
* O=C(c1ccsc1)N1CC[C@H](N2CCN([C@H]3CCN(C(=O)c4cc(C(F)(F)F)cc(C(F)(F)F)c4)[C@H](Cc4ccc(Cl)c(Cl)c4)C3)CC2)C1 [Compound 325] | 398 nM
* O=C(c1ccc(CCO)s1)N1CCC(N2CCN(C3CCN(C(=O)c4cc(C(F)(F)F)cc(C(F)(F)F)c4)C(Cc4ccccc4)C3)CC2)C1 (centres unmarked) [Compound 359] | 2510 nM
* O=C(c1ccsc1)N1CCC(N2CCN(C3CCN(C(=O)c4cc(C(F)(F)F)cc(C(F)(F)F)c4)C(Cc4ccccc4)C3)CC2)C1 (single isomer, unassigned) [Compound 40] | 2510 nM
* O=C(C1CCOC1)N1CCC(N2CCN(C3CCN(C(=O)c4cc(C(F)(F)F)cc(C(F)(F)F)c4)C(Cc4ccc(Cl)c(Cl)c4)C3)CC2)C1 (single isomer, unassigned) [Compound 249] | 5010 nM
